# Test system: HCV replicon in Huh7 cells
# Protocol Description: microbe, parasite or virus in culture
# Format: cell-based, strain 1b
# Condition Context: Hepatitis C virus, Huh-7, 96 h; Huh7 cells expressing HCV replicon, 4 days; activity range class
pEC50: −log10 of the molar value.

Compound	Assay System	pEC50
C=C[C@@H]1C[C@]1(NC(=O)[C@@H]1C[C@@H](Oc2cc3c(Cl)nccc3cc2OC)CN1C(=O)[C@@H](NC(=O)OC(C)(C)C)C(C)(C)C)C(=O)NS(=O)(=O)C1(CC)CC1	HCV replicon in Huh7 cells	> 7.00
C=C[C@@H]1C[C@]1(NC(=O)[C@@H]1C[C@@H](Oc2nccc3cc(OC)ccc23)CN1C(=O)[C@@H](NC(=O)OC(C)(C)C)C(C)(C)C)C(=O)NS(=O)(=O)C1(CCC)CC1	HCV replicon in Huh7 cells	> 7.00
C=C[C@@H]1C[C@]1(NC(=O)[C@@H]1C[C@@H](Oc2nccc3cc(OC)c(F)cc23)CN1C(=O)[C@@H](NC(=O)OC(C)(C)C)C(C)(C)C)C(=O)NS(=O)(=O)C1(CC)CC1	HCV replicon in Huh7 cells	> 7.00
C=C[C@@H]1C[C@]1(NC(=O)[C@@H]1CC(Oc2ccnc(-c3cccs3)c2)CN1C(=O)[C@@H](NC(=O)OC1CCCC1)C(C)(C)C)C(=O)NS(=O)(=O)C1(Cc2ccccc2)CC1 (some centres unmarked)	HCV replicon in Huh7 cells	6.00 to 7.00
C=C[C@@H]1C[C@]1(NC(=O)[C@@H]1C[C@@H](Oc2nccc3ccccc23)CN1C(=O)[C@@H](NC(=O)OCC(C)(C)C)C(C)(C)C)C(=O)NS(=O)(=O)C1(Cc2ccccc2)CC1	HCV replicon in Huh7 cells	6.00 to 7.00

---

# Assay System: HCV NS3/4A protease complex (BMS strain) (UniProt P27958, C1454S/C1711G, species not given)
# Construct: for H77 and J4L6S; fused on or other part: Three-lysine solubilising tail at the C-terminus of NS4A
# Protocol Description: Recombinant HCV NS3/4A protease complex FRET peptide assay
# Type: biochemical, Hepatitis C virus (HCV), genotype 1a
# Condition Context: NS3/4A BMS strain; activity range class
pIC50: −log10 of the molar value.

Compound	pIC50
C=C[C@@H]1C[C@]1(NC(=O)[C@@H]1C[C@@H](Oc2ncc(Cl)c3ccccc23)CN1C(=O)[C@@H](NC(=O)OC(C)(C)C)C(C)(C)C)C(=O)NS(=O)(=O)C1(CC)CC1 [Cpd 102]	> 7.00
C=C[C@@H]1C[C@]1(NC(=O)[C@@H]1C[C@@H](Oc2nccc3c(OC)cccc23)CN1C(=O)[C@@H](NC(=O)OC(C)(C)C)C(C)(C)C)C(=O)NS(=O)(=O)C1(CC)CC1 [Cpd 100]	> 7.00
CCCC1(S(=O)(=O)NC(=O)[C@@]2(NC(=O)[C@@H]3C[C@@H](Oc4cc(-c5ccccc5)nc5c(C)noc45)CN3C(=O)[C@@H](NC(=O)OC(C)(C)C)C(C)(C)C)C[C@H]2CC)CC1 [Cmpd 502]	6.00 to 7.00
C=C[C@@H]1C[C@]1(NC(=O)[C@@H]1C[C@@H](Oc2nccc3ccccc23)CN1C(=O)[C@@H](NC(=O)OC(C)(C)C)C(C)(C)C)C(=O)NS(=O)(=O)C1(CC2CC2)CC1 [Cmpd 400]	> 7.00
C=C[C@@H]1C[C@]1(NC(=O)[C@@H]1C[C@@H](Oc2cc(-c3ccccc3)nc3c(C)noc23)CN1C(=O)[C@@H](NC(=O)OC(C)(C)C)C(C)(C)C)C(=O)NS(=O)(=O)C1(CCC)CC1 [Cmpd 501]	> 7.00
C=C[C@@H]1C[C@]1(NC(=O)[C@@H]1C[C@@H](Oc2nccc3ccccc23)CN1C(=O)[C@@H](NC(=O)OC(C)(C)C)C(C)(C)C)C(=O)NS(=O)(=O)C1(Cc2ccccc2)CC1 [Cmpd 401]	6.00 to 7.00
C=C[C@@H]1C[C@]1(NC(=O)[C@@H]1C[C@@H](Oc2nccc3cc(OC)ccc23)CN1C(=O)[C@@H](NC(=O)NC(C)(C)C)C(C)(C)C)C(=O)NS(=O)(=O)C1(C)CC1 [Cmpd 217]	> 7.00
C=C[C@@H]1C[C@]1(NC(=O)[C@@H]1C[C@@H](Oc2nc(Cl)cc3c(OC)cccc23)CN1C(=O)[C@@H](NC(=O)OC(C)(C)C)C(C)(C)C)C(=O)NS(=O)(=O)C1(CC)CC1 [Cpd 113]	> 7.00
